- system: Tyrosine-protein phosphatase non-receptor type 2 (Homo sapiens, UniProt P17706)
- Sequence (P17706 whole entry): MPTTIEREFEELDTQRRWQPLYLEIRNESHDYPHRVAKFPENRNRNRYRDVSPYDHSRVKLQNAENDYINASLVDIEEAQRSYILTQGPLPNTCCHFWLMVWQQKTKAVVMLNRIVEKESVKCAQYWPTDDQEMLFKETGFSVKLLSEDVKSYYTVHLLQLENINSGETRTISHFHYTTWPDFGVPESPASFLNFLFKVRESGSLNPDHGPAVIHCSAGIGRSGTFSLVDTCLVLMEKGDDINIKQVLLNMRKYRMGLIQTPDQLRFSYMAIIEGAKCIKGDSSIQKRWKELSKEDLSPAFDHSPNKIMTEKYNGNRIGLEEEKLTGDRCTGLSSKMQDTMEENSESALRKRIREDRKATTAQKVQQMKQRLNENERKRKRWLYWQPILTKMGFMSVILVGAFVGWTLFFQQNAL
- experiment-notes: Inhibition of TCPTP (unknown origin) assessed as reduction in nitrophenol production using pNPP as substrate incubated for 30 mins by EnVisionMultilable plate reader based method
pIC50: −log10 of the molar value.
For each of the compounds below, state its pIC50.

Solved cases (5 shown):
{"test-smiles": "COC(=O)C1=C(C(C)C)NC(=S)N[C@H]1/C=C/c1ccccc1", "readout-label": "pIC50", "result": "< 4.00"}
{"test-smiles": "CCOC(=O)C1=C(C(C)C)NC(=S)N[C@H]1/C=C/c1ccc(OC)cc1", "readout-label": "pIC50", "result": 4.39}
{"test-smiles": "CCOC(=O)C1=C(C(C)C)NC(=S)N[C@H]1/C=C/c1ccc(Cl)cc1", "readout-label": "pIC50", "result": 4.45}
{"test-smiles": "COC(=O)C1=C(C(C)C)NC(=S)N[C@H]1/C=C/c1ccc(C(F)(F)F)cc1", "readout-label": "pIC50", "result": "< 4.00"}
{"test-smiles": "COC(=O)C1=C(C(C)(C)C)NC(=S)N[C@H]1/C=C/c1ccc(C)cc1", "readout-label": "pIC50", "result": "< 4.00"}

I would be grateful if you could provide pIC50 for each of the following entries.
1. COC(=O)C1=C(C(C)(C)C)NC(=S)N[C@H]1/C=C/c1ccc(OC)cc1
2. COC(=O)C1=C(C(C)(C)C)NC(=S)N[C@H]1/C=C/c1ccc(Br)cc1

< 4.00
4.44

---

- system: Tyrosine-protein phosphatase non-receptor type 2 (Homo sapiens, UniProt P17706)
- experiment-notes: Inhibition of human FLAG-tagged TCPTP (1 to 296) expressed in Escherichia coli using fluorescein diphosphate as substrate by fluorescence based method
readout-label: pIC50
Answers are plain numbers, as −log10 of the molar value.

pIC50 reading for COC(CC(C)C)c1ccc2ccc(-c3ccc(CC(Cc4ccc(C(F)(F)P(=O)(O)O)cc4)(c4ccccc4)n4nnc5ccccc54)cc3)c(P(=O)(O)O)c2n1 (stereo unspecified) : 7.44

---

- system: UniProt:P18031
- Sequence (P18031 whole entry, the tested form may be a part): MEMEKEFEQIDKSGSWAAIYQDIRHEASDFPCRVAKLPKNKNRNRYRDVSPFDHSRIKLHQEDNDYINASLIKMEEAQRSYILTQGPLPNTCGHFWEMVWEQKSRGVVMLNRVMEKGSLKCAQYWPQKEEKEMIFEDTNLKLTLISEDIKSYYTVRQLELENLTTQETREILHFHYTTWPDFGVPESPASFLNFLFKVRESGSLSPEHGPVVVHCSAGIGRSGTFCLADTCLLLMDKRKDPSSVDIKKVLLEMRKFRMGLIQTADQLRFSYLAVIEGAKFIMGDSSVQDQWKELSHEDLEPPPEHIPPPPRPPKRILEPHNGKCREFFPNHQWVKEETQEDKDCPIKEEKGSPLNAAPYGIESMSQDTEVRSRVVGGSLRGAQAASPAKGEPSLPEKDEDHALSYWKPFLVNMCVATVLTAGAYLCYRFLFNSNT
- experiment-notes: Inhibition of human FLAG-tagged PTP1B catalytic domain (1 to 298) expressed in Escherichia coli using fluorescein diphosphate as substrate by fluorescence based method
readout-label: IC50 (nM)
Numbers only, in nM.

IC50 reading for COC(CC(C)C)c1ccc2ccc(-c3ccc(CC(Cc4ccc(C(F)(F)P(=O)(O)O)cc4)(c4ccccc4)n4nnc5ccccc54)cc3)c(P(=O)(O)O)c2n1 (stereo unspecified) : 5

---

For each of the compounds below, state its Ratio IC50.
- Species: Homo sapiens
- experiment-notes: Selectivity ratio of IC50 for TCPTP (unknown origin) using pNPP as substrate to IC50 for PTP1B (unknown origin) using pNPP as substrate

{"test-smiles": "COC(=O)C1=C(C(C)C)NC(=S)N[C@H]1/C=C/c1ccc(Cl)cc1", "Ratio IC50": "> 14"}
{"test-smiles": "COC(=O)C1=C(C(C)(C)C)NC(=S)N[C@H]1/C=C/c1ccc(Cl)cc1", "Ratio IC50": 8.24}
{"test-smiles": "CCOC(=O)C1=C(C(C)C)NC(=S)N[C@H]1/C=C/c1ccc(C)cc1", "Ratio IC50": "> 13.3"}
{"test-smiles": "COC(=O)C1=C(C(C)C)NC(=S)N[C@H]1/C=C/c1ccc(Br)cc1", "Ratio IC50": "> 15.9"}

I would be grateful if you could provide Ratio IC50 for each of the following entries.
1. CCOC(=O)C1=C(C(C)C)NC(=S)N[C@H]1/C=C/c1ccc(Cl)cc1
2. COC(=O)C1=C(C(C)C)NC(=S)N[C@H]1/C=C/c1ccccc1

7.47
> 5.39
